Tested on: Bacillus subtilis DB104 (SP-AmyQ fusion secretion)
Protocol Details: AmyQ secretion efficiency, weighted average sort bin (1 = best secretion, 10 = worst) (bin number (weighted average, 1-10)); higher = lower secretion efficiency
AmyQ secretion efficiency: recorded values
API doc: respond with a numeric literal and nothing else, no unit.

Some solved cases for reference:
                         chain_sequence  value
0  MRSKKLLFTLWISLLFALTLIFTMAFSNMSAQAAGK   2.87
1         MLKKKWMVGLLAGCLAAGGFSYNAFHTEN   6.18
2            MRKTIFAFLTGLMMFGTITAASRSPD   6.51

From here, focus on the item given below.
Q. Find the measured AmyQ secretion efficiency: item `MRMLWRSKRRCKLALTLAPCAQAAEP` , target or system Bacillus subtilis DB104 (SP-AmyQ fusion secretion).
A. 7.06

###

System: Bacillus subtilis DB104 (SP-AmyQ fusion secretion)
Protocol Details: AmyQ secretion efficiency, weighted average sort bin (1 = best secretion, 10 = worst) (bin number (weighted average, 1-10)); higher = lower secretion efficiency
Quantity Measured: AmyQ secretion efficiency
API doc: respond with a numeric literal and nothing else, no unit.

Some solved cases for reference:
In [3]: df
Out[3]:
                      chain_sequence                                 tested_on  value
0   MRRRTDYKKQVVGILLSLAFVLFVFSFSERHE  Bacillus subtilis DB104 (SP-AmyQ fusion secretion)   6.74
1  MLGSTSFVSSLFISSAVLLSILLPSGQAHAQSA  Bacillus subtilis DB104 (SP-AmyQ fusion secretion)    2.1
2       MNLNTILLSSALSLGMLVSAAPVLATSS  Bacillus subtilis DB104 (SP-AmyQ fusion secretion)    1.5
3     MRKWYQYQGAGVLTSVILAFVYDKTKANEE  Bacillus subtilis DB104 (SP-AmyQ fusion secretion)   8.25

Q. Any idea what its AmyQ secretion efficiency is? The sequence is `MPYLKRVLLLLVTGLFMSLFIFLIVISAVTATASAQTG`
A. 1.25

###

Test system: Bacillus subtilis DB104 (SP-AmyQ fusion secretion)
Protocol Details: AmyQ secretion efficiency, weighted average sort bin (1 = best secretion, 10 = worst) (bin number (weighted average, 1-10)); higher = lower secretion efficiency
Rule: AmyQ secretion efficiency under 4 gives Not fulfilled, otherwise Fulfilled.

Below, 3 sequences whose answers are already recorded.
>>> df
                      chain_sequence                                 tested_on   answer_label
0  MKVCQKSIVRFLVSLIIGTFVISVPFMANAEED  Bacillus subtilis DB104 (SP-AmyQ fusion secretion)  Not fulfilled
1    MTMLRKIIGWILLLCIIPLFAFTVIHSGKEV  Bacillus subtilis DB104 (SP-AmyQ fusion secretion)      Fulfilled
2    MRPVFPLILSAVLFLSCFFGARQTEMSASKR  Bacillus subtilis DB104 (SP-AmyQ fusion secretion)  Not fulfilled

Q. Item `MPIKKKVMMCLAVTLVFGSMSSGGFKE` with AmyQ secretion efficiency of 4 or above?
A. Fulfilled

Q. Item `MKKMLGKLLITAGILVFFAVVVKDVFSAGL` with AmyQ secretion efficiency of 4 or above?
A. Not fulfilled

Q. Item `MKLSVKIAGVLTVAAAAMTAKMYNTAKGN` with AmyQ secretion efficiency of 4 or above?
A. Fulfilled

###

Test system: Bacillus subtilis DB104 (SP-AmyQ fusion secretion)
Protocol Details: AmyQ secretion efficiency, weighted average sort bin (1 = best secretion, 10 = worst) (bin number (weighted average, 1-10)); higher = lower secretion efficiency
Using AmyQ secretion efficiency as the sorting value, the categories are one: < 3; two: ≥ 3 and < 6; three: ≥ 6

Below, 5 sequences whose answers are already recorded.
                        chain_sequence                                 tested_on  answer_label
0        MKRYRQKCLLLVTIMFLGVLFGMQQANHG  Bacillus subtilis DB104 (SP-AmyQ fusion secretion)           two
1      MPYLKRKGYQYQSGLFMSLFAVTATASAQTG  Bacillus subtilis DB104 (SP-AmyQ fusion secretion)           two
2       MKRKRKRIMIFLTSFMLLAMTGQTALAKDV  Bacillus subtilis DB104 (SP-AmyQ fusion secretion)           two
3  MKKRKRRNFKRFIAAFLVLALMISLVPADSLAKST  Bacillus subtilis DB104 (SP-AmyQ fusion secretion)           one
4       MRSYIKTFNVLTMCFLGLILFVPTALADNS  Bacillus subtilis DB104 (SP-AmyQ fusion secretion)           one

Q. Assign a bin to `MKKFIFNMFIGLLFMLCLAALFTIGFPAQQADAAEA`
A. one

###

AmyQ secretion efficiency: recorded values
Tested on: Bacillus subtilis DB104 (SP-AmyQ fusion secretion)
Protocol Details: AmyQ secretion efficiency, weighted average sort bin (1 = best secretion, 10 = worst) (bin number (weighted average, 1-10)); higher = lower secretion efficiency
API doc: respond with a numeric literal and nothing else, no unit.

Some solved cases for reference:
In [3]: df
Out[3]:
                     chain_sequence  value
0      MAIIIAIIAAVIVIAALITFNVRNNSPG   6.02
1  MKSKGSIMACLILFSFTITTFINTETISGFSN   6.11
2        MKRFKKKKSFLSIIVAYPIQTNASPM   5.88

Q. Any idea what its AmyQ secretion efficiency is? The sequence is `MKKKQVMLALTAAAGLGLTALHSAPAKKAAPL`
A. 5.87

Q. Any idea what its AmyQ secretion efficiency is? The sequence is `MKVLLSALLLLLFAFEPSTVVTAATAVASGKKL`
A. 2.96

###

System: Bacillus subtilis DB104 (SP-AmyQ fusion secretion)
Protocol Details: AmyQ secretion efficiency, weighted average sort bin (1 = best secretion, 10 = worst) (bin number (weighted average, 1-10)); higher = lower secretion efficiency
Quantity Measured: AmyQ secretion efficiency
API doc: respond with a numeric literal and nothing else, no unit.

Some solved cases for reference:
In [3]: df
Out[3]:
                     chain_sequence          quantity_measured  value
0        MKLAKRVSALTPSTTLAIATAKAKEL  AmyQ secretion efficiency   7.06
1    MKKAAAVLLSLGLVFGFSYGAGHVAEAAED  AmyQ secretion efficiency   3.87
2  MKKKQQHSTRRKLIVLLFFSFFGVQPIHAKKQ  AmyQ secretion efficiency   5.23

From here, focus on the item given below.
Q. Any idea what its AmyQ secretion efficiency is? The sequence is `MKLAKRVSALTPSTTLAITAKAAED`
A. 5.72

###

System: Bacillus subtilis DB104 (SP-AmyQ fusion secretion)
Protocol Details: AmyQ secretion efficiency, weighted average sort bin (1 = best secretion, 10 = worst) (bin number (weighted average, 1-10)); higher = lower secretion efficiency
Quantity Measured: AmyQ secretion efficiency

Some solved cases for reference:
>>> df
                     chain_sequence  value
0  MKKGIIRFLLVSFVLFFALSSTGITGVQAAPA   1.83
1     MLKKIALILCIAIVFFLLFFSAPASAHVS   3.76
2   MKRMIVRMTLPLLIVCLAFSSFSASARNASE   3.81

Q. Any idea what its AmyQ secretion efficiency is? The sequence is `MKKRFFGPIILAFAGAIAIPS`
A. 9.34

Q. Any idea what its AmyQ secretion efficiency is? The sequence is `MKKIWIGMLAAAVLLLMVPKVMLADAA`
A. 4.26

Q. Any idea what its AmyQ secretion efficiency is? The sequence is `MKVPKTMLLSTAAGLLLSLTATSESAHYV`
A. 6.28

###

Test system: Bacillus subtilis DB104 (SP-AmyQ fusion secretion)
Protocol Details: AmyQ secretion efficiency, weighted average sort bin (1 = best secretion, 10 = worst) (bin number (weighted average, 1-10)); higher = lower secretion efficiency
Quantity Measured: AmyQ secretion efficiency
API doc: respond with a numeric literal and nothing else, no unit.

In [3]: df
Out[3]:
                    chain_sequence  value
0  MTMLRKIIGWILLLCIIPLFAFTVIASRKEV    6.1
1   MKKAAAVLLSLGLVFGFSYGAGHVYEAKTK   5.94

Q. Find the measured AmyQ secretion efficiency: item `MKLSVKIAGVLTVAAAAMTAKMYATMKGN` , target or system Bacillus subtilis DB104 (SP-AmyQ fusion secretion).
A. 6.84

Q. Find the measured AmyQ secretion efficiency: item `MKKKLAAGLTASAIVGTTLVVTPVEAATI` , target or system Bacillus subtilis DB104 (SP-AmyQ fusion secretion).
A. 2.24

Q. Find the measured AmyQ secretion efficiency: item `MKKLLAAGIIGLLTVTSIASPSFAAEK` , target or system Bacillus subtilis DB104 (SP-AmyQ fusion secretion).
A. 2.48

Q. Find the measured AmyQ secretion efficiency: item `MRKNRSSMSFTLILALFVLSLGLLSFMVTPVSAASK` , target or system Bacillus subtilis DB104 (SP-AmyQ fusion secretion).
A. 1.45

Q. Find the measured AmyQ secretion efficiency: item `MMGKGLLAGALTATVLFGTCAVDVPGIISPKTAEAASQ` , target or system Bacillus subtilis DB104 (SP-AmyQ fusion secretion).
A. 1.48

Q. Find the measured AmyQ secretion efficiency: item `MKSKWMSRKLLVAVGFSFTQVMVHAGET` , target or system Bacillus subtilis DB104 (SP-AmyQ fusion secretion).
A. 6.44

Q. Find the measured AmyQ secretion efficiency: item `MRPVFPLILSAVLFLSCFFGARQTEGSASKR` , target or system Bacillus subtilis DB104 (SP-AmyQ fusion secretion).
A. 4.92

Q. Find the measured AmyQ secretion efficiency: item `MSKLIMALVILGALGTSYISADSS` , target or system Bacillus subtilis DB104 (SP-AmyQ fusion secretion).
A. 7.07

Q. Find the measured AmyQ secretion efficiency: item `MKKLLAAGIIGLLTVSIASPSFAADD` , target or system Bacillus subtilis DB104 (SP-AmyQ fusion secretion).
A. 2.83
